Values were extracted from patent US20190367516A1.

# subjectOfTest: human M2 receptor (Homo sapiens, UniProt P08172)
# Sequence (P08172 1-466): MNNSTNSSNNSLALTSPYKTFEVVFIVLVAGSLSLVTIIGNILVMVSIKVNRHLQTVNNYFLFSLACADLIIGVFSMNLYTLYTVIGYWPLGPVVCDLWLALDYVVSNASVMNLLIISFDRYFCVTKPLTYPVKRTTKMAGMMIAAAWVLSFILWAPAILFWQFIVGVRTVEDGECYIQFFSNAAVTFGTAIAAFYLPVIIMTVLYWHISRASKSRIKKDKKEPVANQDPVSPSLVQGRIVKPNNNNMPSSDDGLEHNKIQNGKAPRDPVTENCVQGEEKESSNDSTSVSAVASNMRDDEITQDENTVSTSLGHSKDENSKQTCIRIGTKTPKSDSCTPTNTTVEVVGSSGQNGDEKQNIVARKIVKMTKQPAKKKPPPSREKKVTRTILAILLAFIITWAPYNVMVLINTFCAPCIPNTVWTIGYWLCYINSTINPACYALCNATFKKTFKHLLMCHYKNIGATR
# Type: cell-based
# testParameters: shift in the acetylcholine dose-response curve (Allosteric EC50 shift, GraphPad PRISM); α >1 = positive cooperativity
Entries whose Cooperativity (alpha factor) is below 30 take MET; entries at or above 30 take NOT MET.

compound="O=C(NC(c1c(F)cccc1F)C(F)(F)F)c1cn(-c2ccc(F)cc2F)c2nc(N3CC[C@H](F)C3)ccc2c1=O (mixture of isomers) [Example 241]" classname=MET
compound=CC(C)(C)[C@@H](NC(=O)c1cn(-c2c(F)cc(F)cc2F)c2nc(N3C[C@@H](O)CC3=O)ccc2c1=O)C(F)(F)F classname="NOT MET"

Determine if C[C@H](NC(=O)c1cn(-c2ccc(F)cc2F)c2nc(N(C)C)ccc2c1=O)C(F)(F)F shows Cooperativity (alpha factor) strictly lower than 30.
MET

Determine if CC[C@@H](NC(=O)c1cn(-c2c(F)cc(F)cc2F)c2nc(N3CCC(O)C3=O)ccc2c1=O)C(F)(F)F (stereo partly drawn) [Example 282] shows Cooperativity (alpha factor) strictly lower than 30.
NOT MET

Determine if O=C(NC12CCC(F)(CC1)CC2)c1cn(-c2ccc(F)cc2F)c2nc(NCC(F)(F)F)ccc2c1=O shows Cooperativity (alpha factor) strictly lower than 30.
MET

Determine if O=C(N[C@@H](C1CC1)C(F)(F)F)c1cn(-c2c(F)cccc2F)c2nc(N3C[C@@H](O)CC3=O)ccc2c1=O (single isomer, unassigned) shows Cooperativity (alpha factor) strictly lower than 30.
NOT MET
